Just for reference, paper PMC7586963 is where these values come from.

Test system: T. gondii β-gal tachyzoites
Experiment: T. gondii β-gal tachyzoite proliferation in HFF (β-galactosidase/CPRG assay)
Details: Toxoplasma gondii, 72 h, read-out: T. gondii β-gal proliferation (%)
RESULT_TYPE: activity at 0.1 µM (%)

COMPOUND: CCN(CC)c1ccc2cc(C(=O)NCCCCN)c(=O)oc2c1 [Compound 9]
RESULT_TYPE: activity at 0.1 µM
OUTPUT_UNIT: %
EXPERIMENTAL_VALUE: 114

COMPOUND: NCCCCNC(=O)c1cc2cc3c4c(c2oc1=O)CCCN4CCC3 [Compound 10]
RESULT_TYPE: activity at 0.1 µM
OUTPUT_UNIT: %
EXPERIMENTAL_VALUE: 101

COMPOUND: CCN(CC)c1ccc2cc(C(=O)NCCCNC(=O)OC(C)(C)C)c(=O)oc2c1 [Compound 5]
RESULT_TYPE: activity at 0.1 µM
OUTPUT_UNIT: %
EXPERIMENTAL_VALUE: 131

COMPOUND: CCN(CC)c1ccc2cc(C(=O)NCCCN)c(=O)oc2c1 [Compound 8]
RESULT_TYPE: activity at 0.1 µM
OUTPUT_UNIT: %
EXPERIMENTAL_VALUE: 117

COMPOUND: O=C(O)c1cc2cc3c4c(c2oc1=O)CCCN4CCC3 [Dye2‐CO2H, reference compound]
RESULT_TYPE: activity at 0.1 µM
OUTPUT_UNIT: %
EXPERIMENTAL_VALUE: 69

COMPOUND: CCN(CC)c1ccc2cc(C(=O)NCCCCNC(=O)OC(C)(C)C)c(=O)oc2c1 [Compound 6]
RESULT_TYPE: activity at 0.1 µM
OUTPUT_UNIT: %
EXPERIMENTAL_VALUE: 137

COMPOUND: CC(C)(C)OC(=O)NCCCCNC(=O)c1cc2cc3c4c(c2oc1=O)CCCN4CCC3 [Compound 7]
RESULT_TYPE: activity at 0.1 µM
OUTPUT_UNIT: %
EXPERIMENTAL_VALUE: 132

* * *

Assay: in vitro
Conditions: human

COMPOUND: CCc1nc(N)nc(N)c1-c1ccc(Cl)cc1 [pyrimethamine, reference compound]
viability at 2.5 µM (%): 99

* * *

Experiment: in vitro
Settings: human

COMPOUND: CCN(CC)c1ccc2cc(C(=O)NCCCCNC(=O)OC(C)(C)C)c(=O)oc2c1
viability at 3 days, 1 µM, %: 82
--
COMPOUND: CCN(CC)c1ccc2cc(C(=O)NCCCCN)c(=O)oc2c1
viability at 3 days, 1 µM, %: 111
--
COMPOUND: O=C(O)c1cc2cc3c4c(c2oc1=O)CCCN4CCC3 [Dye2‐CO2H, reference compound]
viability at 3 days, 1 µM, %: 105
--
COMPOUND: CC(C)(C)OC(=O)NCCCCNC(=O)c1cc2cc3c4c(c2oc1=O)CCCN4CCC3
viability at 3 days, 1 µM, %: 96
--
COMPOUND: NCCCCNC(=O)c1cc2cc3c4c(c2oc1=O)CCCN4CCC3
viability at 3 days, 1 µM, %: 69
--
COMPOUND: CCN(CC)c1ccc2cc(C(=O)NCCCNC(=O)OC(C)(C)C)c(=O)oc2c1
viability at 3 days, 1 µM, %: 88
--
COMPOUND: CCN(CC)c1ccc2cc(C(=O)NCCCN)c(=O)oc2c1
viability at 3 days, 1 µM, %: 85
